Assign EC50 to each entry below.
Test system: Human immunodeficiency virus 1
Experiment: Antiviral activity against HIV1 3B in presence of 10% fetal calf serum and alpha1 acid glycoprotein
Format: functional, organism-based
Conditions: Human immunodeficiency virus 1, 3B

-- ask Provide EC50 value for the following compound: CC(=O)N[C@H](CS(=O)(=O)c1ccc(Cl)cc1)C(=O)N[C@@H](Cc1ccccc1)[C@H](O)C(=O)N1CSC(C)(C)[C@H]1C(=O)NCc1ccccc1C
-- reply 1270 nM

-- ask Look up and report measured EC50 for this entry: CC(=O)N[C@H](CSc1cccc2ccccc12)C(=O)N[C@@H](Cc1ccccc1)[C@H](O)C(=O)N1CSC(C)(C)[C@H]1C(=O)NCc1ccccc1C
-- reply 401 nM

-- ask For the compound CC(=O)N[C@H](CCc1ccccc1)C(=O)N[C@@H](Cc1ccccc1)[C@H](O)C(=O)N1CSC(C)(C)[C@H]1C(=O)NCc1ccccc1C , give its reported EC50.
-- reply 155 nM

-- ask Provide one value: measured EC50 of CSC[C@H](NC(=O)COc1cccc2cnccc12)C(=O)N[C@@H](Cc1ccccc1)[C@H](O)C(=O)N1CSC[C@H]1C(=O)NC(C)(C)C
-- reply 529 nM

-- ask Fill in reported EC50 for this entry: CC(=O)N[C@H](CSCc1ccc(C)cc1)C(=O)N[C@@H](Cc1ccccc1)[C@H](O)C(=O)N1CSC(C)(C)[C@H]1C(=O)NCc1ccccc1C
-- reply 84 nM

* * *

Biological target: Protease (Human immunodeficiency virus 1)
Details: at 1 nM
Note: every record was labeled by where its inhibition sits among bottom end (below 60%), midrange (60% to below 80%), top end (80% or more)

-- ask Bin? CC(C)c1nc(CN(C)C(=O)N[C@H](C(=O)N[C@@H](Cc2ccccc2)C[C@H](O)[C@H](Cc2ccccc2)NC(=O)OCc2cncs2)C(C)C)cs1
-- reply top end

-- ask Lab log: COc1ccc(CSC[C@@H](NC(C)=O)C(=O)N[C@@H](Cc2ccccc2)[C@H](O)C(=O)N2CSC(C)(C)[C@H]2C(=O)NCc2ccccc2C)cc1 — assign inhibition category
-- reply top end

-- ask Category of CC(=O)N[C@H](CSc1ccc2ccccc2c1)C(=O)N[C@@H](Cc1ccccc1)[C@H](O)C(=O)N1CSC(C)(C)[C@H]1C(=O)NCc1ccccc1C :
-- reply bottom end

-- ask Band of CC(=O)N[C@H](CSCc1ccc(C)cc1)C(=O)N[C@@H](Cc1ccccc1)[C@H](O)C(=O)N1CSC(C)(C)[C@H]1C(=O)NCc1ccccc1C ?
-- reply midrange

-- ask Any idea which band CC(=O)N[C@H](COCc1ccccc1)C(=O)N[C@@H](Cc1ccccc1)[C@H](O)C(=O)N1CSC(C)(C)[C@H]1C(=O)NCc1ccccc1C is in?
-- reply midrange

-- ask Assign a bin to CC(=O)N[C@H](CS(=O)(=O)c1ccc2ccccc2n1)C(=O)N[C@@H](Cc1ccccc1)[C@H](O)C(=O)N1CSC(C)(C)[C@H]1C(=O)NCc1ccccc1C
-- reply top end

-- ask Hello team, could you let me know which band the following compound falls into: Cc1ccccc1CNC(=O)[C@H]1N(C(=O)[C@@H](O)[C@H](Cc2ccccc2)NC(=O)[C@@H](CSCc2ccccc2)NS(C)(=O)=O)CSC1(C)C
-- reply midrange

-- ask Band assignment needed for Cc1ccccc1CNC(=O)[C@H]1N(C(=O)[C@@H](O)[C@H](Cc2ccccc2)NC(=O)[C@@H](CSc2ccc3ccccc3c2)NS(C)(=O)=O)CSC1(C)C please.
-- reply midrange

-- ask Into which bin does this compound go? Cc1ccccc1CNC(=O)[C@H]1N(C(=O)[C@@H](O)[C@H](Cc2ccccc2)NC(=O)[C@@H](CSc2ccc3ccccc3n2)NS(C)(=O)=O)CSC1(C)C
-- reply bottom end

-- ask Quick check: band for Cc1ccccc1CNC(=O)[C@H]1N(C(=O)[C@@H](O)[C@H](Cc2ccccc2)NC(=O)[C@@H](CS(=O)(=O)c2ccc3ccccc3n2)NS(C)(=O)=O)CSC1(C)C
-- reply top end

* * *

System: Human immunodeficiency virus 1
Assay: Ratio of EC50 for nelfinavir-resistant HIV1 NL432 to EC50 for wild-type HIV1 NL432
Type: functional
Exercise: state measured Ratio EC50 for each of the molecules provided.
// return just the number, without any unit appended

-- ask Report the value of Ratio EC50 obtained on Human immunodeficiency virus 1 for CC(=O)N[C@H](CSCc1ccc(C)cc1)C(=O)N[C@@H](Cc1ccccc1)[C@H](O)C(=O)N1CSC(C)(C)[C@H]1C(=O)NCc1ccccc1C .
-- reply 0.16

-- ask Tell me its Ratio EC50 on Human immunodeficiency virus 1: CC(=O)N[C@H](COCc1ccccc1)C(=O)N[C@@H](Cc1ccccc1)[C@H](O)C(=O)N1CSC(C)(C)[C@H]1C(=O)NCc1ccccc1C
-- reply 0.28

-- ask Give Ratio EC50; test system Human immunodeficiency virus 1; molecule COc1ccc(CSC[C@@H](NC(C)=O)C(=O)N[C@@H](Cc2ccccc2)[C@H](O)C(=O)N2CSC(C)(C)[C@H]2C(=O)NCc2ccccc2C)cc1
-- reply 0.14

-- ask Jot down Ratio EC50 (Human immunodeficiency virus 1) of Cc1ccccc1CNC(=O)[C@H]1N(C(=O)[C@@H](O)[C@H](Cc2ccccc2)NC(=O)[C@@H](CSc2ccc3ccccc3c2)NS(C)(=O)=O)CSC1(C)C .
-- reply 0.05

-- ask Lab note: record Ratio EC50 of CC(=O)N[C@H](CS(=O)(=O)c1ccc(Cl)cc1)C(=O)N[C@@H](Cc1ccccc1)[C@H](O)C(=O)N1CSC(C)(C)[C@H]1C(=O)NCc1ccccc1C tested on Human immunodeficiency virus 1.
-- reply 0.11

-- ask Name the recorded Ratio EC50 of CC(=O)N[C@H](CCc1ccccc1)C(=O)N[C@@H](Cc1ccccc1)[C@H](O)C(=O)N1CSC(C)(C)[C@H]1C(=O)NCc1ccccc1C , assay system Human immunodeficiency virus 1.
-- reply 0.23

-- ask Using Human immunodeficiency virus 1 as the test system, report measured Ratio EC50 of Cc1ccccc1CNC(=O)[C@H]1N(C(=O)[C@@H](O)[C@H](Cc2ccccc2)NC(=O)[C@@H](COCc2ccccc2)NS(C)(=O)=O)CSC1(C)C .
-- reply 0.1

-- ask GET Ratio EC50 where system = Human immunodeficiency virus 1 and item = CSC[C@H](NC(=O)COc1cccc2cnccc12)C(=O)N[C@@H](Cc1ccccc1)[C@H](O)C(=O)N1CSC[C@H]1C(=O)NC(C)(C)C
-- reply 2.3

-- ask Jot down Ratio EC50 (Human immunodeficiency virus 1) of COc1ccc(CSC[C@@H](NS(C)(=O)=O)C(=O)N[C@@H](Cc2ccccc2)[C@H](O)C(=O)N2CSC(C)(C)[C@H]2C(=O)NCc2ccccc2C)cc1 .
-- reply 0.04

-- ask Report value only: Ratio EC50, Human immunodeficiency virus 1, Cc1c(O)cccc1C(=O)N[C@@H](CSc1ccccc1)[C@H](O)CN1C[C@H]2CCCC[C@H]2C[C@H]1C(=O)NC(C)(C)C
-- reply 12

* * *

Assay: Cytotoxicity against human MT4 cells by MTT assay
Assay type: cell-based
Task for the reader: assign each of the following compounds its reported CC50.
Report as a plain number; the unit µM is understood.

-- ask Indicate its recorded CC50; the compound in question is CC(=O)N[C@H](CS(=O)(=O)c1ccc(Cl)cc1)C(=O)N[C@@H](Cc1ccccc1)[C@H](O)C(=O)N1CSC(C)(C)[C@H]1C(=O)NCc1ccccc1C
-- reply 18

-- ask Identify the reported CC50 for the following entry. COc1ccc(CSC[C@@H](NS(C)(=O)=O)C(=O)N[C@@H](Cc2ccccc2)[C@H](O)C(=O)N2CSC(C)(C)[C@H]2C(=O)NCc2ccccc2C)cc1
-- reply 10

-- ask Kindly indicate its recorded CC50. Item: Cc1ccccc1CNC(=O)[C@H]1N(C(=O)[C@@H](O)[C@H](Cc2ccccc2)NC(=O)[C@@H](CSc2ccc3ccccc3n2)NS(C)(=O)=O)CSC1(C)C
-- reply 8.5

* * *

Record form. Attribute: inhibition. Fill in for each entry.
Target: Protease (Human immunodeficiency virus 1)
Conditions: at 1 nM
Output spec: scalar in %, unitless text.

-- ask Give me measured inhibition, please, for this compound: Cc1ccc(CS(=O)(=O)C[C@@H](NS(C)(=O)=O)C(=O)N[C@@H](Cc2ccccc2)[C@H](O)C(=O)N2CSC(C)(C)[C@H]2C(=O)NCc2ccccc2C)cc1
-- reply 52

-- ask Hello, please tell me recorded inhibition for this one: CC(=O)N[C@H](CS(=O)(=O)c1cccc2ccccc12)C(=O)N[C@@H](Cc1ccccc1)[C@H](O)C(=O)N1CSC(C)(C)[C@H]1C(=O)NCc1ccccc1C
-- reply 97

-- ask Answer with the recorded inhibition for the compound listed here: CSC[C@H](NC(=O)COc1cccc2cnccc12)C(=O)N[C@@H](Cc1ccccc1)[C@H](O)C(=O)N1CSC[C@H]1C(=O)NC(C)(C)C
-- reply 40

-- ask Consider the compound COc1ccc(CS(=O)(=O)C[C@@H](NS(C)(=O)=O)C(=O)N[C@@H](Cc2ccccc2)[C@H](O)C(=O)N2CSC(C)(C)[C@H]2C(=O)NCc2ccccc2C)cc1 and give its recorded inhibition.
-- reply 66

-- ask Give the reported value of inhibition for this record: CC(=O)N[C@H](CS(=O)(=O)c1ccc2ccccc2c1)C(=O)N[C@@H](Cc1ccccc1)[C@H](O)C(=O)N1CSC(C)(C)[C@H]1C(=O)NCc1ccccc1C
-- reply 96

-- ask Look up inhibition of Cc1ccccc1CNC(=O)[C@H]1N(C(=O)[C@@H](O)[C@H](Cc2ccccc2)NC(=O)[C@@H](CS(=O)(=O)c2ccc(F)cc2)NS(C)(=O)=O)CSC1(C)C and report it.
-- reply 94

Origin of values: ChEMBL document CHEMBL1150285
